# MEASURED_ON: UDP-N-acetylenolpyruvoylglucosamine reductase (Escherichia coli K-12, UniProt P08373)
# Sequence (P08373 whole entry): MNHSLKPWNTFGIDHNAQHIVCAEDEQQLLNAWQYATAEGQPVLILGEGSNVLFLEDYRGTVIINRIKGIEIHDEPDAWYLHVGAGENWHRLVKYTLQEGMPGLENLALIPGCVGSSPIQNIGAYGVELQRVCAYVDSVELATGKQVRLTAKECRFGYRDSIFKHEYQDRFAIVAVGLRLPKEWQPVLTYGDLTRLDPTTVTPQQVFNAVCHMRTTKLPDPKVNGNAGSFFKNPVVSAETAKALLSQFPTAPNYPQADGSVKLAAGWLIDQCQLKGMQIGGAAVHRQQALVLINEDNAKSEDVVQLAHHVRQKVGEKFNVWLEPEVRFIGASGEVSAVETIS
pIC50: −log10 of the molar value.
Label yes (1) when pIC50 >= 5; otherwise no (0).

Ask: Please tell me: is the compound O=C(Nc1ccc(Cl)c(Cl)c1)c1c(O)n(-c2ccc(Cl)c(Cl)c2)n(-c2ccc(Cl)c(Cl)c2)c1=O at or over 5 in terms of pIC50?
Reply: yes (1)

Ask: Check if pIC50 >= 5 (inclusive). Item: O=C(c1ccc(C(F)(F)F)cc1)c1c(O)n(-c2ccc(Cl)cc2)n(-c2ccc(Cl)cc2)c1=O
Reply: no (0)

Ask: Reported pIC50 at or above 5? O=C(c1ccc(OC(F)(F)F)cc1)c1c(O)n(-c2ccc(Cl)cc2)n(-c2ccc(Cl)cc2)c1=O
Reply: yes (1)

Ask: Can COc1ccc(CC(=O)c2c(O)n(-c3ccc(Cl)cc3)n(-c3ccc(Cl)cc3)c2=O)cc1 be said to have pIC50 at or above 5?
Reply: no (0)

Ask: Say whether O=C1CC(=O)N(c2ccc(F)cc2)N1c1ccc(F)cc1 shows pIC50 of 5 or more.
Reply: no (0)

Ask: Dear colleague, could you confirm whether O=C(Nc1ccc(Cl)cc1)c1c(O)n(-c2ccccc2)n(-c2ccccc2)c1=O has pIC50 at or above 5?
Reply: no (0)

Ask: Hi team, for O=C1CC(=O)N(c2ccc(Cl)cc2)N1c1ccc(Cl)cc1 , is the recorded pIC50 at or above 5?
Reply: no (0)

Ask: Could you tell me if the measured pIC50 of O=C1CC(=O)N(c2ccc(Cl)c(Cl)c2)N1c1ccc(Cl)c(Cl)c1 reaches 5 or more?
Reply: no (0)

Ask: API: above_or_equal(metric=pIC50, cutoff=5) for item CCCCOc1ccc(C(=O)c2c(O)n(-c3ccc(Cl)cc3)n(-c3ccc(Cl)cc3)c2=O)cc1
Reply: yes (1)

Ask: I'd appreciate it if you could say whether O=C(c1ccc(-c2ccccc2)cc1)c1c(O)n(-c2ccc(Cl)cc2)n(-c2ccc(Cl)cc2)c1=O has pIC50 at least equal to 5.
Reply: yes (1)

Ask: Test whether the compound O=C(Nc1ccccc1)c1c(O)n(-c2ccccc2)n(-c2ccccc2)c1=O records pIC50 of 5 or higher.
Reply: no (0)

Ask: Could you tell me if the measured pIC50 of Cc1ccc(NC(=O)c2c(O)n(-c3ccc(Cl)c(Cl)c3)n(-c3ccc(Cl)c(Cl)c3)c2=O)cc1 reaches 5 or more?
Reply: yes (1)

Ask: Given O=C1CC(=O)N(c2cccc(Cl)c2)N1c1cccc(Cl)c1 , state whether its pIC50 is at least 5.
Reply: no (0)

Ask: // inclusive: pIC50 at least 5? input: O=C(Nc1ccc(C(F)(F)F)cc1)c1c(O)n(-c2ccc(Cl)cc2)n(-c2ccc(Cl)cc2)c1=O
Reply: yes (1)

Ask: Hi, just wondering whether O=C(c1cccs1)c1c(O)n(-c2ccc(Cl)cc2)n(-c2ccc(Cl)cc2)c1=O shows pIC50 of 5 or higher.
Reply: yes (1)

Ask: Is the recorded value of pIC50 equal to or greater than 5 for this compound? O=C(Nc1ccc(Br)cc1)c1c(O)n(-c2ccccc2)n(-c2ccccc2)c1=O
Reply: no (0)
